Answer each item with its documented Kd.
- System: T1, EsCas13d, nuclease-dead (Eubacterium siraeum, UniProt B0MS50, R295A;H300A;R849A;H854A)
- T1 sequence: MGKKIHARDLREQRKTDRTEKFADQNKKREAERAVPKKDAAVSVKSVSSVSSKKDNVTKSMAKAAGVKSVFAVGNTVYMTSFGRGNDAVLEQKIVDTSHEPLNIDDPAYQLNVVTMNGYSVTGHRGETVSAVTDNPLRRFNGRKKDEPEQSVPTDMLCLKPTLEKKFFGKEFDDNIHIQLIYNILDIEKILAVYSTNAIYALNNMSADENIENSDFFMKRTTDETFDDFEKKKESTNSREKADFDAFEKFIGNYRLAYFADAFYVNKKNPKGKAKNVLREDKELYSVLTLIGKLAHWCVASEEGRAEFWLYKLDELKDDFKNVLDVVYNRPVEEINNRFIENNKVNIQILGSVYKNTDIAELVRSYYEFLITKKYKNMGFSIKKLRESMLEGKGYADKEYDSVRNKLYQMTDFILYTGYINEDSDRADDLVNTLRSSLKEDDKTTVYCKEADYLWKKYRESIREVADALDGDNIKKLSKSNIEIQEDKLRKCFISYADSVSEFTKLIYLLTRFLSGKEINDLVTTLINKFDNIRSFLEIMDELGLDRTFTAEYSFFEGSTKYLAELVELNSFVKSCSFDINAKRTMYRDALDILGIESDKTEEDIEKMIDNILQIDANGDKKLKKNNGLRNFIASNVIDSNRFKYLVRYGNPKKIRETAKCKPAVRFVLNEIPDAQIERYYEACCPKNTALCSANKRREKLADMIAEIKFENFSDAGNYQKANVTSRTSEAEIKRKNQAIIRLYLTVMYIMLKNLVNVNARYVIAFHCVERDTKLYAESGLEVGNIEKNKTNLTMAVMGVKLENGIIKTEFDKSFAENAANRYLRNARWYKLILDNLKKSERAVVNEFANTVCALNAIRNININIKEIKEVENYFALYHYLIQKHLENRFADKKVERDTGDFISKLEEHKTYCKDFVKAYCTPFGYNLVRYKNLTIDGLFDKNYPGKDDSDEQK
- Protocol Details: crRNA (strand 1, pre-loaded); Mg2+; 40 mM Tris-HCl pH 7.5, 150 mM NaCl, 6 mM MgCl2, 1 mM DTT, 0.1% Tween-20, 0.2 mg/ml BSA; 25 C; 10 min per concentration, then washed
- Condition Info: tags: His6-TwinStrep-SUMO cleaved; N-terminal SNAP kept (SNAP-Surface 488); label: 3' end held by stalled T7 RNA polymerase
Write down the numeric answer in nM and omit the unit.

Exercise: Note Kd for the binder shown: target 1 MT 5'PFS UAG 3'PFS UCG (mixed) RNA 1: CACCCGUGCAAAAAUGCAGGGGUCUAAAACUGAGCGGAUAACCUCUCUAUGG RNA 2: GGGAAUGGAUCCACAUCUACGAAUUCUAGCCAUAGAGAGGUUAUCCGCUCAUCGAGAUCGGAAGAGCACACGU
Solution: 20.1

Exercise: Note Kd for the binder shown: target 1 U10G,A14G (mixed) RNA 1: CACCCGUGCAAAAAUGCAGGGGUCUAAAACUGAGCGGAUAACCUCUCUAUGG RNA 2: GGGAAUGGAUCCACAUCUACGAAUUCGUACCAUAGAGGGGUGAUCCGCUCACCGAGAUCGGAAGAGCACACGU
Solution: 23.3

Exercise: Note Kd for the binder shown: target 1 insU 3' of 21,insC 3' of 3 (mixed) RNA 1: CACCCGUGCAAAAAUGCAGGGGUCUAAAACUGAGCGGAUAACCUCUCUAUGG RNA 2: GGGAAUGGAUCCACAUCUACGAAUUCGUACCUAUAGAGAGGUUAUCCGCUCCACCGAGAUCGGAAGAGCACACGU
Solution: 22.7

Exercise: Note Kd for the binder shown: target 1 insC 3' of 17,insA 3' of 15 (mixed) RNA 1: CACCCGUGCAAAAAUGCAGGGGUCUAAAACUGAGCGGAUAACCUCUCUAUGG RNA 2: GGGAAUGGAUCCACAUCUACGAAUUCGUACCAUAGCAGAAGGUUAUCCGCUCACCGAGAUCGGAAGAGCACACGU
Solution: 28
